compounds and their reported EC50
- testTarget: FPRL1 (Homo sapiens, UniProt P25090)
- Construct: expressed in transfected cells; host or cells: CHO-Gal6 (CHO cells with G alpha 16)
- Sequence (P25090 whole entry, species assumed): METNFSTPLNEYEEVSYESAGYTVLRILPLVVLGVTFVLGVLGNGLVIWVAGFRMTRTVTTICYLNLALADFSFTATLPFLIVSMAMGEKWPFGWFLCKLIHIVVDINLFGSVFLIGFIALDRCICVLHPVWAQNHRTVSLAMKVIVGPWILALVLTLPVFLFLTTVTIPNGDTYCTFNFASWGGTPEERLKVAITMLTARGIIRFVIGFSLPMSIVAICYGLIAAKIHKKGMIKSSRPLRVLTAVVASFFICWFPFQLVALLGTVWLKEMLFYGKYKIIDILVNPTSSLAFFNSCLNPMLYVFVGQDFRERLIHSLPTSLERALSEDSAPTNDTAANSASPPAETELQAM
- testDetails: compound-induced calcium activity on FLIPR Tetra in CHO-Gal6 cells stably expressing FPRL1
- Assay type: cell-based
- measurementParameters: calcium, FLIPR Tetra, tested 0.61 to 10,000 nM, read-out: FPRL1 EC50

{"compound": "CC(=O)c1ccc(NC(=O)C2C(C(=O)O)C3C=CC2C32CC2)cc1 (racemic)", "comparator": "=", "EC50 [nM]": 277}
{"compound": "NC(=O)C1C(C(=O)Nc2ccc(I)cc2)C2C=CC1C21CC1 (racemic) [Compound 50]", "comparator": "=", "EC50 [nM]": 1.8}
{"compound": "O=C(O)C1C(C(=O)Nc2ccc(Br)cc2)C2CCC1C21CC1 (single isomer, unassigned) [Compound 10B]", "comparator": "<", "EC50 [nM]": 1}
{"compound": "CNC(=O)[C@@H]1[C@H](C(=O)Nc2ccc(Br)cc2)[C@@H]2CC[C@H]1C21CC1 (racemic)", "comparator": "=", "EC50 [nM]": 9.7}
{"compound": "CN(C(=O)[C@H]1[C@@H](C(=O)O)[C@H]2CC[C@@H]1C21CC1)c1ccc(Br)cc1 (racemic)", "comparator": "=", "EC50 [nM]": 410}
{"compound": "CSc1ccc(NC(=O)[C@H]2[C@@H](C(N)=O)[C@H]3CC[C@@H]2C3(C)C)cc1 (racemic)", "comparator": "=", "EC50 [nM]": 17.2}
{"compound": "O=C(Nc1ccc(Br)cc1)C1C(CO)C2C=CC1C21CC1 (racemic)", "comparator": "=", "EC50 [nM]": 229}
{"compound": "O=C(O)C1=C(C(=O)Nc2ccc(Br)cc2)C2CCC1CC2", "comparator": "=", "EC50 [nM]": 143}
{"compound": "O=C(O)[C@@H]1[C@H](C(=O)Nc2ccc(I)cc2)[C@@H]2CC[C@H]1C21CC1 (racemic)", "comparator": "=", "EC50 [nM]": 1}
{"compound": "CCc1ccc(NC(=O)C2C(C(N)=O)C3C=CC2C32CC2)cc1 (racemic) [Compound 48]", "comparator": "=", "EC50 [nM]": 51}
{"compound": "O=C(NCCO)[C@@H]1[C@H](C(=O)Nc2ccc(Br)cc2)[C@@H]2CC[C@H]1C21CC1 (racemic)", "comparator": "=", "EC50 [nM]": 8.8}
{"compound": "O=C(O)C1C(C(=O)Nc2ccc(-c3ccccc3)cc2)C2C=CC1C21CC1 (racemic)", "comparator": "=", "EC50 [nM]": 2360}
{"compound": "CSc1ccc(NC(=O)[C@H]2[C@@H](C(=O)O)[C@H]3CC[C@@H]2C32CC2)cc1 (racemic)", "comparator": "=", "EC50 [nM]": 7}
{"compound": "COc1ccccc1NC(=O)C1C(C(=O)O)C2C=CC1C21CC1 (racemic)", "comparator": "=", "EC50 [nM]": 3170}
{"compound": "NC(=O)[C@@H]1[C@H](C(=O)Nc2ccc(I)cc2)[C@@H]2CC[C@H]1C21CC1 (racemic) [Compound 62]", "comparator": "=", "EC50 [nM]": 5}
{"compound": "CS(=O)(=O)c1ccc(NC(=O)[C@H]2[C@@H](C(=O)O)[C@H]3CC[C@@H]2C32CC2)cc1", "comparator": "=", "EC50 [nM]": 598}

Source of measurements: patent US8618163B2
